test-target: hMOR (Homo sapiens, UniProt P35372)
Construct: host or cells: CHO-K1
Sequence (P35372 whole entry): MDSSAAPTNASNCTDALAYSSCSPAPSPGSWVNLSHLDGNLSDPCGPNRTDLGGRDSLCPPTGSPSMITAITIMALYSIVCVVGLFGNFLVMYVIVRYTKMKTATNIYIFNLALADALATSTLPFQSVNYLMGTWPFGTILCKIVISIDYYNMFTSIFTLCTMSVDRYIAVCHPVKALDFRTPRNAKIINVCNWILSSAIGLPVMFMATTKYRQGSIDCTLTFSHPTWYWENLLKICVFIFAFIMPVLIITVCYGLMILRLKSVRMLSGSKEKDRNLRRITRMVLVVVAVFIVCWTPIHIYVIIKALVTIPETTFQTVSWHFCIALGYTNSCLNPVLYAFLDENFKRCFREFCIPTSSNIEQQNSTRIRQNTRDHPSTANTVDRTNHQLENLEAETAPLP
test-summary: cell-based
Type: cell-based
measurement-context: EC50, combined with naloxone; CHO-K1/MOR/Gα15 cells
pEC50: −log10 of the molar value.
Recorded pEC50 by entry

Take a look at these entries with their results.
**Q:** Form field: reported pEC50 of "Cc1nc(C)c(-c2csc(Nc3c(C)cccc3F)n2)s1"
**A:** 5.00 to 5.52

**Q:** Can you handle "Cc1cc(C)c(Nc2nc(-c3oc(C)nc3C)cs2)c(C)c1" next?
**A:** 5.00 to 5.52

**Q:** Can you handle "Cc1nc(C)c(-c2csc(Nc3ccccc3N3CCOCC3)n2)s1" next?
**A:** 5.00 to 5.52

**Q:** Can you handle "CCc1ccccc1Nc1nc(-c2sc(C)nc2C)cs1" next?
**A:** 5.00 to 5.52

**Q:** Can you handle "Cc1cc(C)c(Nc2nc(-c3sc(C)nc3C)cs2)c(C)c1" next?
**A:** 5.00 to 5.52

Further cases:
**Q:** Form field: reported pEC50 of "CCc1ccccc1Nc1nc(-c2oc(C)nc2C)cs1"
**A:** 5.00 to 5.52

**Q:** Can you handle "CCc1cccc(CC)c1Nc1nc(-c2sc(C)nc2C)cs1" next?
**A:** 5.52 to 6.00

**Q:** Can you handle "CCc1cc(Br)ccc1Nc1nc(-c2sc(C)nc2C)cs1" next?
**A:** 5.00 to 5.52

**Q:** Can you handle "CC(=O)c1ccc(Nc2nc(-c3sc(C)nc3C)cs2)cc1" next?
**A:** < 5.00

**Q:** Can you handle "CCc1cccc(C)c1Nc1nc(-c2sc(C)nc2C)cs1" next?
**A:** 5.52 to 6.00

----------
test-target: hMOR (Homo sapiens, UniProt P35372); for AUC: test concentration or dose not given here
Construct: host or cells: CHO-K1
test-summary: cell-based
Assay type: cell-based
measurement-context: AUC of [Ca2+]i fluorescence; combined with naloxone; CHO-K1/MOR/Gα15 cells
measured-attribute: AUC

**Q:** For the record "COc1ccc(Nc2nc(-c3sc(C)nc3C)cs2)c(OC)c1" , what value of AUC is listed for hMOR (Homo sapiens, UniProt P35372)?
**A:** + (+: >5000)

**Q:** Can you handle "CCc1ccccc1Nc1nc(C)cs1" next?
**A:** − (−: <5000)

**Q:** Can you handle "CCc1ccccc1Nc1nc(-c2ccc(C)cc2C)cs1" next?
**A:** − (−: <5000)

**Q:** Can you handle "Cc1nc(C)c(-c2csc(Nc3ccc(F)cc3C)n2)s1" next?
**A:** − (−: <5000)

**Q:** Can you handle "CCc1ccccc1Nc1nc2c(s1)Cc1ccccc1-2" next?
**A:** − (−: <5000)

**Q:** Can you handle "Cc1nc(C)c(-c2csc(Nc3ccccc3CO)n2)s1" next?
**A:** − (−: <5000)

**Q:** Can you handle "Cc1cc(C)c(Nc2nc(-c3oc(C)nc3C)cs2)c(C)c1" next?
**A:** + (+: >5000)

**Q:** Can you handle "Cc1nc(C)c(-c2csc(Nc3c(C)cccc3F)n2)s1" next?
**A:** + (+: >5000)

Further cases:
**Q:** For the record "Cc1nc(C)c(-c2csc(Nc3nc4ccccc4s3)n2)s1" , what value of AUC is listed for hMOR (Homo sapiens, UniProt P35372)?
**A:** − (−: <5000)
